Provenance of the data: ChEMBL document CHEMBL1137344

# Tested on: P388/ADR
# run-description: Antiproliferative activity against adriamycin resistant P388 cells in presence of 5 uM 1,13-bis[4'-((5,7-dihydroxy)-4H-chromen-4-on-2-yl)phenyl]-1,4,7,10,13-pentaoxatridecane by ELISA
# Format: functional, cell-based
# measurement-conditions: Mus musculus
pIC50: −log10 of the molar value.
I would appreciate it if you labelled entries 1 (yes) when pIC50 is 8 or higher, otherwise 0 (no).

Solved entries (count: 5):
>>> assigned_category("CC[C@]1(O)C[C@H]2CN(CCc3c([nH]c4ccccc34)[C@@](C(=O)OC)(c3cc4c(cc3OC)N(C=O)[C@H]3[C@@](O)(C(=O)OC)[C@H](OC(C)=O)[C@]5(CC)C=CCN6CC[C@]43[C@@H]65)C2)C1")
"1 (yes)"
>>> assigned_category("COc1cccc2c1C(=O)c1c(O)c3c(c(O)c1C2=O)C[C@@](O)(C(=O)CO)C[C@@H]3O[C@H]1C[C@H](N)[C@H](O)[C@H](C)O1")
"0 (no)"
>>> assigned_category("COc1cccc2c1C(=O)c1c(O)c3c(c(O)c1C2=O)C[C@@](O)(C(C)=O)C[C@@H]3O[C@H]1C[C@H](N)[C@H](O)[C@H](C)O1")
"0 (no)"
>>> assigned_category("CC[C@]1(O)C[C@@H]2CN(CCc3c([nH]c4ccccc34)[C@@](C(=O)OC)(c3cc4c(cc3OC)N(C)[C@H]3[C@@](O)(C(=O)OC)[C@H](OC(C)=O)[C@]5(CC)C=CCN6CC[C@]43[C@@H]65)C2)C1")
"1 (yes)"
>>> assigned_category("CC(=O)O[C@H]1C(=O)[C@@]2(C)[C@H]([C@H](OC(=O)c3ccccc3)[C@]3(O)C[C@H](OC(=O)[C@H](O)[C@@H](NC(=O)c4ccccc4)c4ccccc4)C(C)=C1C3(C)C)[C@]1(OC(C)=O)CO[C@@H]1C[C@@H]2O")
"0 (no)"

Exercise: Please check the record O=C1c2c(O)ccc(O)c2C(=O)c2c(NCCNCCO)ccc(NCCNCCO)c21 and state if its pIC50 is at or above 8.
Solution: 0 (no)
